Tested on: Mus musculus
Experiment: Average weight of the mouse after treating with 40 mg/kg dose for 1 day.
Type: functional
Set-up: unit not given here
ENDPOINT_NAME: Average weight
// no unit string in output, number only

What value of measured Average weight is listed for CC(C)COC(=O)CCC(NC(=O)c1cc(Cl)c(N(C)Cc2cnc3nc(N)nc(N)c3n2)c(Cl)c1)C(=O)OCC(C)C (stereo not drawn) ?
21.4

Average weight lookup needed for CCCC(C)OC(=O)CCC(NC(=O)c1cc(Cl)c(N(C)Cc2cnc3nc(N)nc(N)c3n2)c(Cl)c1)C(=O)OC(C)CCC (stereo not drawn) , thanks.
20.6

May I ask what Average weight has been recorded for CN(Cc1cnc2nc(N)nc(N)c2n1)c1ccc(C(=O)NC(CCC(=O)OCc2cc3c(cc2Cl)OCO3)C(=O)OCc2cc3c(cc2Cl)OCO3)cc1 (stereo not drawn) ?
21.4
